test system: 677734-321-R-J1-PDC complex spheroid viability; assay: Anticancer human tumor 677734-321-R-J1-PDC patient-derived soft tissue sarcoma cell line growth inhibition [POLQ]; details: second compound 0.0316 µM; first compound 0.0316 µM; hits give low values;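 also: spheroids exposed to compounds for one week; 100% = vehicle DMSO treated spheroids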
readout: viability, T/C (%)
Report as a plain number; the unit % is understood.

Data request: Short answer please: viability, T/C, 677734-321-R-J1-PDC complex spheroid viability, entry COc1cc2cc(C(=O)CCC(=O)O)sc2cc1OC + Nc1ccc(C#CCN(C(=O)Cc2ncc(C(F)(F)F)cc2C(F)(F)F)c2ccc(F)cc2)nn1
Data returned: 105

Data request: Ok, now CCCS(=O)(=O)Nc1ccc(F)c(C(=O)c2c[nH]c3ncc(-c4ccc(Cl)cc4)cc23)c1F + Cc1cccc(N(C)C(=O)C2C(O)CCN2c2nc(C)cc(C(F)(F)F)c2C#N)c1
Data returned: 104

Data request: Record: COc1cccc2c1C(=O)c1c(O)c3c(c(O)c1C2=O)CC(O)(C(=O)CO)CC3OC1CC(N)C(O)C(C)O1 (stereo not given) + Cc1cccc(N(C)C(=O)C2C(O)CCN2c2nc(C)cc(C(F)(F)F)c2C#N)c1
Data returned: 73.8

Data request: Would you kindly repeat that for COc1cccc2c1C(=O)c1c(O)c3c(c(O)c1C2=O)CC(O)(C(=O)CO)CC3OC1CC(N)C(O)C(C)O1 (stereo not given) + Nc1ccc(C#CCN(C(=O)Cc2ncc(C(F)(F)F)cc2C(F)(F)F)c2ccc(F)cc2)nn1 ?
Data returned: 55.1

Data request: Next record, please: Nc1ccn(C2OC(CO)C(O)C2(F)F)c(=O)n1 (stereo not given) + COC1C(OC(N)=O)C(O)C(Oc2ccc3c(O)c(NC(=O)c4ccc(O)c(CC=C(C)C)c4)c(=O)oc3c2C)OC1(C)C
Data returned: 32.5
